- Test system: HeLa
- measurement_description: Cytotoxicity against human HeLa cells after 4 days by MTT assay
- Type: functional, cell-based
- protocol_conditions: 96 h
readout_kind: IC50 (µM)

# smiles, readout_kind, units, reading_qualifier, measured_value
measured = [
    ("O=C(c1ccc(-c2nc3ccccc3c(=O)[nH]2)cc1)N1CCN(S(=O)(=O)c2ccccc2)CC1", "IC50", "µM", "=", 8.9),
    ("COc1ccc(Cn2c(-c3ccc(C(=O)N4CCN(S(=O)(=O)c5ccccc5)CC4)cc3)nc3ccccc3c2=O)cc1", "IC50", "µM", "=", 2.9),
    ("Cn1c(-c2ccc(C(=O)N3CCN(S(=O)(=O)c4ccccc4)CC3)cc2)nc2ccccc2c1=O", "IC50", "µM", "=", 14.1),
    ("CC(C)S(=O)(=O)N1CCN(C(=O)c2ccc(-c3nc4ccccc4c(=O)[nH]3)cc2)CC1", "IC50", "µM", "=", 11),
    ("COc1cccc2c1C(=O)c1c(O)c3c(c(O)c1C2=O)C[C@@](O)(C(=O)CO)C[C@@H]3O[C@H]1C[C@H](N)[C@H](O)[C@H](C)O1", "IC50", "µM", "=", 3.7),
    ("CS(=O)(=O)N1CCN(C(=O)c2ccc(-c3nc4ccccc4c(=O)[nH]3)cc2)CC1", "IC50", "µM", ">", 50),
    ("O=C(c1ccc(-c2nc3ccccc3c(=O)[nH]2)cc1)N1CCN(S(=O)(=O)c2ccc(Cl)cc2)CC1", "IC50", "µM", "=", 18),
    ("O=C(O)c1ccc(-c2nc3ccccc3c(=O)[nH]2)cc1", "IC50", "µM", ">", 50),
]
